- Test system: CCRF-CEM leukemia
- Run Description: NCI tumour cell line growth inhibition, 48 h
Metric: TGI

1. COc1ccc(C(=O)C(C(=O)CCC(=O)Nc2cccc(Cl)c2)c2ccc(OC)cc2)cc1 (stereo not given) ... > 100 µM
2. NS(=O)(=O)c1ccc(NC2(C(=O)O)CCCC2)cc1 ... > 100 µM
3. Cc1cc(S(=O)(=O)Nc2nnc(-c3ccccc3)c(-c3ccccc3)n2)c(SCC(N)=O)cc1Cl ... 77.4 µM
4. CCOc1cn(C2CC(O)C(CO)O2)c(=O)[nH]c1=O (stereo not given) ... > 100 µM
5. O=C(O)c1ccc([N+](=O)[O-])c2cc3cnccc3nc12 ... 9.03 µM
6. Cn1c2c(c3ccccc31)CC1c3c(c4ccccc4n3C)CC21 (stereo not given) ... > 100 µM
7. C=CC(CCc1ccc(C(=O)OCC)cc1)c1c(N)nc(N)[nH]c1=O (stereo not given) ... > 100 µM
8. Cc1cccc(N2CCN(C(=S)c3ccc4c(c3)OCO4)CC2)c1 ... > 100 µM
9. NC(N)=N/N=C/c1c[nH]c2ccccc12 ... > 100 µM
10. CC12C(=O)CC(CC1=O)C2(C)C ... > 100 µM

====

- Tested on: NCI-H23 lung
- Run Description: NCI tumour cell line growth inhibition, 48 h; in the data active means GI50 below about 0.43 µM; inactive means the rest
Classes used: true = active, false = inactive

1. COC1=CC(=O)c2nc(-c3cccc(C)n3)[nH]c2C1=O ... false
2. COc1cc2c3c(n(CCCNC(=O)OCC4c5ccccc5-c5ccccc54)c(=O)c2cc1OC)-c1cc2c(cc1/C3=C\CCNC(=O)OCC1c3ccccc3-c3ccccc31)OCO2 ... false
3. CCOC(=O)c1c(C)n(Cc2ccc(Cl)cc2Cl)c2c1c(CN(C)C)c(O)c1[nH]cnc12 ... true
4. CN1C/C=C\CCOc2cccc(c2)-c2ccnc(n2)Nc2cccc(c2)C1 ... true
5. O=C(NC1=CC(=O)c2ccccc2C1=O)c1ccccc1 ... false

====

- Tested on: OVCAR-3 ovarian
- Run Description: NCI tumour cell line growth inhibition, 48 h
Each entry below carries its recorded TGI.
Metric: TGI

1) CCOCc1nc2c(OC)cc(-c3nc4ccc(N5CCN(C)CC5)cc4[nH]3)c(OC)c2[nH]1 ... 70.6 µM
2) NC(N)=N/N=C(\c1nc2ccc([N+](=O)[O-])cc2[nH]c1=O)C(O)c1ccc([N+](=O)[O-])cc1 (stereo not given) ... > 100 µM
3) N#CC(NC12CC3CC(CC(C3)C1)C2)c1ccccc1C(F)(F)F (stereo not given) ... > 100 µM
4) C[N+](C)(C)CC1CCCCCCCCCCC1=O (stereo not given) ... > 100 µM
5) C1=CC2SSSC2C1 (stereo not given) ... > 100 µM
6) O=C1OC(c2ccccc2)=N/C1=C\c1cccc2ccccc12 ... > 100 µM
7) CC(C)(C)c1cc(C(C)(C)C)cc(S(=O)(=O)Nc2cc3ccccc3cc2C(=O)NCCN)c1 ... 3.21 µM
8) CCN(CC)CCNc1nc2ccc([N+](=O)[O-])cc2[n+]([O-])n1 ... > 100 µM
9) COC1C=CC(O)C(CO)O1 (stereo not given) ... > 100 µM
10) O=Cc1ccc(OCc2cccc(COc3ccc(/C=N\Nc4ccc([N+](=O)[O-])cc4[N+](=O)[O-])cc3)n2)cc1 ... > 100 µM

Where do these numbers come from? They come from PubChem BioAssay (NCI).
